In this section, each of the compounds is paired with its reported IC50.
- Tested on: J774.2 macrophage cell line
- method.description: Macrophage cytotoxicity
- Format: cell-based
- conditions: Mus musculus; J774.2 macrophages; means of three separate experiments; read-out: Macrophage Toxicity IC50

// solved cases for IC50 follow
* c1cc2nc(c1)CNCCCNCCCNCCCNC2 [Py333] | 310 µM
* c1cc2nc(c1)CNCCCNCCCNCCCNCCCNCCCNC2 [Py33333] | 1500 µM
* c1cc2nc(c1)CNCCCNCCNCCNCCCNC2 [Py3223] | 165 µM
* c1cc2nc(c1)CNCCCNCCNCCNCCNCCCNC2 [Py32223] | 57.7 µM
* c1cc2cc(c1)CNCCNCCCNCCNC2 [mB232] | 667 µM

Query: IC50 lookup needed for c1cc2ccc1CNCCNCCCNCCNC2 [pB232] , thanks.
Reply: 719 µM

Query: Using the record for c1cc2nc(c1)CNCCCNCCCCNC2 [Py34] , report its IC50.
Reply: 569 µM

Query: // returns reported IC50 for input c1cc2cc(c1)CNCCCNCCNCCCNC2 [mB323]
Reply: 428 µM

Query: Which IC50 is listed for c1cc2cc(c1)CNCCCNCCNCCNCCCNC2 [mB3223] ?
Reply: 1450 µM

Query: Need IC50, item c1cc2cc(c1)CNCCCNCCCNCCCNC2 [mB333]
Reply: 916 µM

Query: Which measured IC50 value corresponds to c1cc2nc(c1)CNCCCNCCNCCCNCCNCCCNC2 [Py32323] ?
Reply: 85.4 µM

Query: What value of IC50 has been recorded for this entry: c1c2n[nH]c1CNCCCNCCCNCCCNC2 [PZ333]
Reply: 985 µM

Query: For the compound c1c2n[nH]c1CNCCNCCCNCCNC2 [PZ232] , what IC50 is on record?
Reply: 674 µM

Query: Give the measured IC50 of c1cc2nc(c1)CNCCCNCCCNCCNCCCNCCCNC2 [Py33233] .
Reply: 1290 µM

###

- System: L. infantum amastigote forms
- method.description: In vitro activity against amastigote forms in J774.2 macrophages
- Format: cell-based
- conditions: Leishmania infantum, in J774.2 macrophages, means of three separate experiments, read-out: Compound IC50 Amastigote Forms
Some compounds, each annotated with its measured IC50.

• c1c2n[nH]c1CNCCNCCCNCCNC2 = 4.9 µM

# evaluate next
Query: Please look up its IC50: `c1cc2nc(c1)CNCCCNCCCNCCCNCCCNCCCNC2`
Reply: 1.7 µM

###

# Selectivity Index Promastigote Forms per entry
- System: L. braziliensis promastigote forms
- method.description: In vitro activity against promastigote forms
- Assay type: cell-based
- conditions: J774.2 Macrophage IC50/Parasite IC50
Would you mind answering with just the numeric figure?

Query: GET /values?readout=Selectivity Index Promastigote Forms&item= `c1cc2cc(c1)CNCCCNCCNCCCNC2`
Reply: 186

Query: Selectivity Index Promastigote Forms; subject: `c1cc2nc(c1)CNCCCNCCCNCCNCCCNCCCNC2`
Reply: 3

Query: Entry `c1cc2nc(c1)CNCCCNCCCCNC2` has what Selectivity Index Promastigote Forms?
Reply: 19

Query: Fill in: Selectivity Index Promastigote Forms of `c1cc2ccc1CNCCNCCCNCCNC2` is ___
Reply: 26

Query: Return reported Selectivity Index Promastigote Forms; argument: `c1c2n[nH]c1CNCCCNCCCNCCCNC2`
Reply: 63

Query: Endpoint output: Selectivity Index Promastigote Forms of `c1cc2cc(c1)CNCCCNCCCNCCCNC2` . Value?
Reply: 4

Query: Entry under review: `c1cc2cc(c1)CNCCCNCCNCCNCCCNC2` . Reported Selectivity Index Promastigote Forms?
Reply: 93

Query: Entry under review: `c1c2n[nH]c1CNCCNCCCNCCNC2` . Reported Selectivity Index Promastigote Forms?
Reply: 116

Query: Which measured Selectivity Index Promastigote Forms value corresponds to `c1cc2nc(c1)CNCCCNCCNCCNCCCNC2` ?
Reply: 1

Query: Suppose we examine the compound `c1cc2nc(c1)CNCCCNCCCNCCCNCCCNCCCNC2` ; what Selectivity Index Promastigote Forms value has been reported?
Reply: 41

Query: // query Selectivity Index Promastigote Forms value for entry `c1cc2cc(c1)CNCCNCCCNCCNC2`
Reply: 7

Query: Could you tell me which Selectivity Index Promastigote Forms is on file for `c1cc2nc(c1)CNCCCNCCCNCCCNC2` ?
Reply: 12

###

- System: L. infantum promastigote forms
- method.description: In vitro activity against promastigote forms
- Assay type: cell-based
- conditions: Leishmania infantum, 48 h, 27 °C, means of three separate experiments, read-out: Compound IC50 Promastigote Forms
measurement.label: IC50
Answer format: number, then unit.

Below are worked cases with known answers.
• c1cc2nc(c1)CNCCCNCCCNCCCNCCCNCCCNC2 [Py33333] = 8.51 µM
• c1cc2cc(c1)CNCCCNCCCNCCCNC2 [mB333] = 86.1 µM

Lab note: next molecule to report on.
Query: Quick check: IC50 of c1c2n[nH]c1CNCCCNCCCNCCCNC2 [PZ333] ?
Reply: 70 µM
